Data origin, for the record: ChEMBL document CHEMBL4402556

Property: half-life; scope: individual molecules
# Test protocol: Half life in CD-1 mouse at 1 mg/kg, iv administered as single dose measured up to 24 hrs by LC-MS/MS analysis
# Assay type: ADME, organism-based
# Test settings: in vivo
Quick reminder: number only, in min, skip the unit.

O=C(C1CCN(c2cc(N3CCOCC3)ncn2)CC1)N1CCC(Cc2ccc(F)cc2)CC1 = 27

Here is the next item to consider.
For this molecule ( `O=C(C1CCN(c2cc(N3CCOCC3)ncn2)CC1)N1CCC(Oc2ccc(F)cc2)CC1` ), measured half-life is 60

---

# Test system: Mycobacterium tuberculosis
# Test protocol: Antitubercular activity against wild type Mycobacterium tuberculosis H37Rv ATCC 25618 transfected with pATB45luc plasmid expressing luciferase infected in human THP1 cells assessed as reduction in bacterial growth after 4 days by BrightGlo luciferase assay
# Format: functional
# Test settings: H37Rv ATCC 25618, 96 h
Parameter: MIC90 (µM)
API: value field is a number in µM; no unit string.

These solved cases illustrate the format of a correct answer.
O=C(C1CCN(c2cc(N3CCOCC3)ncn2)CC1)N1CCC(Cc2ccccc2)CC1 = 0.07
O=C(C1CCN(c2cc(N3CCOCC3)ncn2)CC1)N1CCC(Oc2ccc(F)cc2)CC1 = 0.62
O=C(C1CCN(c2cc(N3CCOCC3)ncn2)CC1)N1CCC(Cc2ccc(F)cc2)CC1 = 0.21

Now look at this entry.
The compound identified as `COc1ncnc(Cn2cc(C(=O)NCCF)c3ncccc32)c1C` registered its MIC90 at 0.62

---

# System: Mycobacterium tuberculosis
# Test protocol: Antibacterial activity against Mycobacterium tuberculosis transfected with pMV261 vector expressing DprE1 assessed as bacterial growth inhibition
# Type: functional
Consider the following compounds and their measured MIC90 readings.
Could you give me the number in µM? Just the number is fine.

O=C(C1CCN(c2cc(N3CCOCC3)ncn2)CC1)N1CCC(Cc2ccc(F)cc2)CC1 = 15

// next item, MIC90 requested
Reported MIC90 of `O=C(C1CCN(c2cc(N3CCOCC3)ncn2)CC1)N1CCC(Oc2ccc(F)cc2)CC1` : 62

---

# Test protocol: Clearance in CD-1 mouse at 1 mg/kg, iv administered as single dose measured up to 24 hrs by LC-MS/MS analysis
# Format: ADME, organism-based
# Test settings: in vivo
Parameter: clearance (mL/min/kg)
Numbers only here, please. The scale is mL/min/kg.

O=C(C1CCN(c2cc(N3CCOCC3)ncn2)CC1)N1CCC(Oc2ccc(F)cc2)CC1 = 23.5

# clearance (compound: `O=C(C1CCN(c2cc(N3CCOCC3)ncn2)CC1)N1CCC(Cc2ccc(F)cc2)CC1` ) is 38.9

---

# Test protocol: Kinetic aqueous solubility of the compound in phosphate buffer saline at pH 7.4 after 1 hr by CLND method
# Assay type: physicochemical
# Test settings: phosphate buffered saline, read-out: Kinetic_solubility
Parameter: solubility kinetic at 1 h

Below are worked cases with known answers.
O=C(C1CCN(c2cc(N3CCOCC3)ncn2)CC1)N1CCC(Oc2ccc(F)cc2)CC1 = ≥ 364 µM
CC1CCN(C(=O)C2CCN(c3cc(N4CCCCC4)ncn3)CC2)CC1 = > 488 µM
O=C(C1CCN(c2cc(N3CCCCC3)ncn2)CC1)N1CCCCC1 = > 405 µM

Now for a further molecule.
Memo: `O=C(C1CCN(c2nnc(-n3cccc3)s2)CC1)N1CCC(Cc2ccccc2)CC1` , reported solubility kinetic at 1 h: < 1 µM
